# Tested on: U251 CNS
# Test details: NCI tumour cell line growth inhibition, 48 h
Quantity: TGI

See these solved cases before continuing.
CN1C(=O)CC(=O)N1/C(=C/c1ccccc1)c1ccccc1 ... > 100 µM
Oc1c(N2CCCCC2)cc(-c2cc(N3CCCCC3)c(O)c3ccccc23)c2ccccc12 ... > 100 µM

Query: Output TGI of O=C1C(Cl)N(c2ccccc2Cl)C1c1c[nH]c2ccccc12 (stereo not drawn)
Result: > 100 µM

----------
# Test system: A549 NSCLC
# Test details: NCI tumour cell line growth inhibition, 48 h
Examples of compounds with documented TGI follow.

See these solved cases before continuing.
COC1(OC)c2occc2C(=N)c2ccc(=O)oc21 ... > 100 µM
CC[C@H](C)[C@H](NC(=O)[C@H]1CCCCN1C)C(=O)N(C)[C@H](C[C@@H](OC(C)=O)c1nc(C(=O)NC23CC(C(=O)OC)(C2)C3)cs1)C(C)C ... > 32.5 µM
COC(=O)c1cc2c(cc1Cl)Sc1nnc(Nc3ccccc3)n1S2(=O)=O ... 26.9 µM
CC(C)[C@@H]1CC[C@]2(CO2)[C@@H]2C(=O)OCC(C(=O)O)=C[C@H]21 ... > 100 µM
COc1ccc(-c2nc3ccc(Cc4ccc5nc(-c6ccc(OC)cc6)[nH]c5c4)cc3[nH]2)cc1 ... 0.237 µM

Query: Output TGI of `Cc1cc(O)c(/C=N/C(N)=S)c(=O)o1`
Result: > 100 µM

Query: Output TGI of `N#Cc1ccc(Sc2nc3ccccc3[nH]2)cc1`
Result: > 100 µM

Query: Output TGI of `COC(=O)C1=C(C(=O)OC)C2(c3ccccc3)OC1(c1ccccc1)c1cc3ccccc3cc12`
Result: 5.32 µM
